- Test system: Sp2/0 cells
- assaySummary: Growth of Sp2/0 cells in transferrin-free CD Hybridoma medium with metal binding compounds
- Assay type: cell-based
- studyConditions: 25 μM, third passage, control = 5 μg/mL human holo-transferrin, duplicate cultures
// reported mean percentage of control growth per item
testReadout: mean percentage of control growth (%)

>>> df
                                    molecule  observedresult
 0  O=C(O)CN(CC(=O)O)CC(=O)O.[Cl][Fe]([Cl])[Cl] [Nitriloacetic Acid · Ferric Chloride]              88
 1  NCC(=O)O.[Cl][Fe]([Cl])[Cl] [Glycine · Ferric Chloride]              34
 2  O=c1cc(CO)occ1O.[Cl][Fe]([Cl])[Cl] [Kojic Acid · Ferric Chloride]               0
 3  Cc1occc(=O)c1O [3-Hydroxy-2-Methyl-4-Pyrone (Maltol), 3-Hydroxy-2-Methyl-4-Pyrone]               0
 4  C1COCCN1.[Cl][Fe]([Cl])[Cl] [Morpholine · Ferric Chloride]              54
 5  O=[N+]([O-])c1ncccc1O.[Cl][Fe]([Cl])[Cl]              52
 6        O=C(O)c1cccnc1O.[Cl][Fe]([Cl])[Cl]              64
 7  NC(=O)CCC(N)C(=O)O.[Cl][Fe]([Cl])[Cl] (stereo not shown) [Glutamine · Ferric Chloride]              36
 8         Cc1occc(=O)c1O.[Cl][Fe]([Cl])[Cl]              60
 9         O=C(O)c1ccccn1.[Cl][Fe]([Cl])[Cl]               0
10  [Cl][Fe]([Cl])[Cl] [Ferric Chloride, reference compound]              55
11  Cc1ncc(CO)c(C(=O)O)c1O.[Cl][Fe]([Cl])[Cl] [4-Pyridoxic Acid · Ferric Chloride]              40
12  O=C(O)CN(CC(=O)O)CC(=O)O [Nitriloacetic Acid]               0
13              O=c1cc(CO)occ1O [Kojic Acid]               0
14  NC(=O)CC(N)C(=O)O.[Cl][Fe]([Cl])[Cl] (stereo not shown) [Asparagine · Ferric Chloride]              36
15  CCc1occc(=O)c1O [2-Ethyl-3-Hydroxy-4-Pyrone]               0
16  O=C(O)CN(CCN(CC(=O)O)CC(=O)O)CCN(CC(=O)O)CC(=O)O.O=S(=O)([O-])[O-].[Fe+2]              54
17  NC(CO)C(=O)NO.[Cl][Fe]([Cl])[Cl] (stereo not shown) [Serine Hydroxamate · Ferric Chloride]              46
18     [Cl][Fe]([Cl])[Cl].[O-][n+]1cccc(O)c1              55
19  O=S(=O)([O-])[O-].[Fe+2] [Ferrous Sulfate, reference compound]              91
20  OC[C@@H](O)[C@@H](O)[C@H](O)[C@@H](O)CO.[Cl][Fe]([Cl])[Cl] [Sorbitol · Ferric Chloride]              94

====

- System: 293 cells
- assaySummary: Growth of 293 cells in transferrin-free 293 SFM with metal binding compounds
- Format: cell-based
- studyConditions: 25 μM, third passage, control = 5 μg/mL human holo-transferrin, duplicate cultures
- Experimental: Semi-confluent adherent cultures of 293 Cells (ATCC, CRL 1573) are readily adapted to suspension culture. […] The initial seeding density of the 293 cells after conversion to suspension culture is 1×10^6 cells/mL. […] After several passages in suspension culture, the maximum achievable density may be determined. […] In most cases, metal binding compounds were evaluated either alone or in combination with ferric chloride or ferrous sulfate at 25 μM, 50 μM and 100 μM. […]
mean percentage of control growth strictly under 60% means rule met; at 60% or over means rule not met.

>>> df
                                   compound  classassignment
0     [Cl][Fe]([Cl])[Cl].[O-][n+]1cccc(O)c1     rule not met
1  NC(Cn1ccc(=O)c(O)c1)C(=O)O.[Cl][Fe]([Cl])[Cl] (centres unmarked) [Mimosine · Ferric Chloride]     rule not met
2  [O-][n+]1cccc(O)c1 [3-Hydroxypyridine-N-Oxide]         rule met
3  Cc1ncc(CO)c(C(=O)O)c1O.[Cl][Fe]([Cl])[Cl] [4-Pyridoxic Acid · Ferric Chloride]     rule not met
4  CC(=O)NO.[Cl][Fe]([Cl])[Cl] [Acetohydroxamic Acid · Ferric Chloride]     rule not met
